Test system: PLK4
Settings: concentration: 1 μM, replicates: in singlicate; n = 1;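 further: KINOMEscan kinase panel screen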
Assay endpoint: %Inh (%)

# Compound, System, Assay endpoint, Readout value
records = [
    ("Cn1ccc2ncnc(Oc3ccc(NC(=O)Nc4ccncc4)c(Cl)c3)c21", "PLK4", "%Inh", 0),
    ("O=c1cc(N2CCOCC2)nc2n(Cc3cccc4ccccc34)ccn12 [GSK2333389]", "PLK4", "%Inh", 0),
    ("Cc1c(Cn2c(C)nn3c(=O)cc(N4CCOC(C)C4)nc23)cccc1C(F)(F)F (stereo not drawn) [GSK2344444]", "PLK4", "%Inh", 0),
    ("Cn1cc(-c2ccc3c(c2)CCN3C(=O)Cc2ccccc2Cl)c2c(N)ncnc21 [GSK2608885]", "PLK4", "%Inh", 55),
    ("CCc1nc(-c2cccc(C)c2)c(-c2ccnc(NCc3ccccc3)c2)s1", "PLK4", "%Inh", 0),
    ("N#Cc1ccc(-c2cc(-c3c[nH]nc3-c3ccccn3)ccn2)cc1 [GW693028]", "PLK4", "%Inh", 0),
    ("COc1cc2c(cc1OC[C@@H](O)CO)ncc1c3ccc(C#N)cc3[nH]c21", "PLK4", "%Inh", 9),
    ("CSc1ccc(-c2cc3ncnc(SCC(=O)O)c3s2)cc1", "PLK4", "%Inh", 11),
    ("Fc1ccc(-c2ncn(CCCN3CCOCC3)c2-c2cccnc2)cc1 [SB-211743]", "PLK4", "%Inh", 0),
]

###

%Inh values for the molecules below.
Test system: LATS1
Settings: concentration: 1 μM, replicates: in singlicate; n = 1

# Molecule, System, %Inh / %
data = [
    ("c1ccc(-c2n[nH]cc2-c2ccnc3ccccc23)nc1", "LATS1", 0),
    ("Cc1nnc(-c2ccc3ncc(-c4ccc(S(C)=O)cc4)n3c2)o1 (centres unmarked)", "LATS1", 17),
    ("Cn1cc(-c2ccc3c(c2)CCN3C(=O)Cc2ccccc2Cl)c2c(N)ncnc21", "LATS1", 15),
    ("Nc1nc(-c2ccc3c(N)n[nH]c3c2)cc(N2CCCC2)n1", "LATS1", 0),
    ("N#Cc1ccc(-c2cc(-c3c[nH]nc3-c3ccccn3)ccn2)cc1", "LATS1", 0),
]

###

Tested on: PCTK1
Construct: gene CDK16
Settings: concentration: 1 μM, replicates: in singlicate; n = 1
Use T when the recorded %Inh is no lower than 1%; use F when it is lower.

# Compound, Label
records = [
    ("COc1cc2c(cc1OCCN1CCN(C)CC1)ncc1c3ccc(C#N)cc3[nH]c21", "F"),
    ("COc1ccc(CNC(=O)NC2CCN(c3ccnc(Nc4ccc(OC)cc4)n3)C2)cc1 (stereo not drawn)", "F"),
    ("Cl.Cl.Cl.Fc1ccc(-c2ncn(C3CCNCC3)c2-c2ccnc(Nc3ccccc3)n2)cc1", "F"),
    ("CNc1ncnc2[nH]ncc12", "F"),
    ("Cn1cc(-c2ccc3c(c2)CCN3C(=O)Cc2ccccc2Cl)c2c(N)ncnc21", "T"),
    ("NCC(NC(=O)c1cc(-c2cn[nH]c2)c(-c2ccnc3[nH]ccc23)s1)c1ccccc1.O=C(O)C(F)(F)F.O=C(O)C(F)(F)F (stereo not drawn)", "T"),
    ("CSc1ccc(-c2cc3ncnc(SCC(=O)O)c3s2)cc1", "F"),
    ("[2H]C([2H])(c1cccc(C(F)(F)F)c1C)n1ccn2c(=O)nc(N3CCOCC3)cc12", "T"),
    ("Cc1nnc(-c2ccc3occ(-c4ccc(C(C)O)cc4)c3c2)o1 (stereo not drawn)", "T"),
    ("CCCCCc1nc2c(N)ncnc2n1CCCCC", "F"),
    ("O=C(Nc1n[nH]c2cc(-c3cccc(F)c3)ccc12)C1CC1", "T"),
    ("CC(C)Oc1ccc2c(-c3ccnc(Nc4ccc(N5CCN(C)CC5)cc4)n3)cnn2n1", "T"),
    ("COc1cc2c(cc1OC[C@@H](O)CO)ncc1c3ccc(C#N)cc3[nH]c21", "F"),
    ("Cc1cccc(-c2nc(-c3ccc(S(C)(=O)=O)cc3)sc2-c2ccncc2)c1", "F"),
    ("O=c1cc(N2CCOCC2)nc2n(Cc3cccc4ccccc34)ccn12", "T"),
    ("COc1ccc(Nc2nccc(N3CCC(NC(=O)Nc4cccc(C(C)=O)c4)C3)n2)cc1 (stereo not drawn)", "T"),
    ("Cc1nnc(-c2ccc(C)c(-c3ccc(C(=O)Nc4ccc(NS(C)(=O)=O)cc4)cc3)c2)o1", "F"),
    ("COC(=O)Nc1nc2cc(Oc3ccc(NC(=O)Nc4cc(F)ccc4F)cc3)ccc2[nH]1.Cl", "F"),
    ("NS(=O)(=O)c1cccc(-c2ccc3ncc(N4CCOCC4)nc3c2)c1", "F"),
    ("O=C(NOCC1CC1)c1ccc(F)c(F)c1Nc1ccc(I)cc1Cl", "F"),
    ("Cl.Nc1ncnc2occ(-c3ccc(NC(=O)Nc4cc(C(F)(F)F)ccc4F)cc3)c12", "T"),
    ("O=c1cc(N2CCOCC2)nc2n(Cc3cccc(F)c3)ccn12", "T"),
    ("Fc1ccc(-c2ncn(CCCN3CCOCC3)c2-c2cccnc2)cc1", "F"),
    ("Fc1ccc(-c2ncn(CCCN3CCOCC3)c2-c2ccccn2)cc1", "F"),
    ("c1ccc(-c2cc(-c3c[nH]nc3-c3ccccn3)ccn2)cc1", "F"),
    ("CN(C(=O)c1ccc(-c2cc(-c3c[nH]nc3-c3ccccn3)ccn2)cc1)C1CCOCC1", "F"),
    ("O=c1cc(N2CCOCC2)nc2n(Cc3cccc(Cl)c3Cl)c(C3CC3)nn12", "F"),
    ("CN1c2ccc(NCc3ccc(F)cc3)cc2-c2c(cnn2C)S1(=O)=O", "F"),
    ("C[C@@H](Oc1cc(-n2cnc3ccc(NC(=O)NC(C)(C)C)cc32)sc1C(N)=O)c1ccccc1Cl", "F"),
    ("Cn1ccc2ncnc(Oc3ccc(NC(=O)Nc4ccncc4)c(Cl)c3)c21", "F"),
    ("Fc1ccc(-c2nn3c(OCC(F)(F)F)cccc3c2-c2ccncc2)cc1", "F"),
    ("O=C1NC(=O)C(N2CCc3ccccc32)=C1c1cccc(Cl)c1", "F"),
    ("Cc1c(Cn2c(C)nn3c(=O)cc(N4CCOC(C)C4)nc23)cccc1C(F)(F)F (stereo not drawn)", "T"),
    ("O=C(Nc1cccc(-c2nn3ncccc3c2-c2ccnc(Nc3cccc(C(F)(F)F)c3)n2)c1)c1c(F)cccc1F", "T"),
]
